Catalogue of pKi values
Target: memapsin 2 (Homo sapiens)
Sequence (P56817 46-501): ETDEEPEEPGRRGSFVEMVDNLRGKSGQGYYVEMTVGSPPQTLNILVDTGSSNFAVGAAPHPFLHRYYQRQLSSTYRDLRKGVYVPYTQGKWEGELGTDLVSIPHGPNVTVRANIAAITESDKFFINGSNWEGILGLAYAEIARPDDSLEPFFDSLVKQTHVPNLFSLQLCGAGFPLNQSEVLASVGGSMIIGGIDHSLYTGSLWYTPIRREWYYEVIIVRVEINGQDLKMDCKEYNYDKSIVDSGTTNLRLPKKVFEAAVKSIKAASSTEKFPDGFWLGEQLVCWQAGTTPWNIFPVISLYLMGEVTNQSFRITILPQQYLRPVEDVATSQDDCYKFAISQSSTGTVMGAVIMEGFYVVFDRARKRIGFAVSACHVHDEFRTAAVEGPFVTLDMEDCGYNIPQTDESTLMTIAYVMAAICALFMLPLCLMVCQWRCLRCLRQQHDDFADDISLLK
Assay: Inhibition of memapsin 2 beta-secretase activity toward fluorogenic substrate FS-2
Format: biochemical
Settings: memapsin 2, pH 4, 37° C., 20 minutes pre-incubation, substrate FS-2; read-out: M2Ki
pKi: −log10 of the molar value.
Measured Attribute: pKi

INSERT INTO results (smiles_data, measured_attribute, reported) VALUES
  ('Cc1cc(C(=O)N[C@@H](Cc2ccccc2)[C@H](O)CNCc2cccc(C(C)(F)F)c2)cc(C(=O)N2CCC[C@@H]2c2nc(C)co2)c1', 'pKi', '> 7.00'),
  ('Cc1coc([C@H]2CCCN2C(=O)c2cccc(C(=O)N[C@@H](Cc3ccccc3)[C@H](O)CNCc3cccc(C(C)(C)C)c3)c2)n1', 'pKi', '> 7.00'),
  ('Cc1csc([C@H]2CCCN2C(=O)c2cc(C(=O)N[C@@H](Cc3ccccc3)[C@H](O)CNCc3cncc(C(C)(C)F)c3)cc(-c3ncco3)c2)n1', 'pKi', '> 7.00'),
  ('COc1cccc([C@H](C)NC[C@@H](O)[C@H](Cc2ccccc2)NC(=O)c2cccc(C(=O)N3CCC[C@@H]3c3nc(C)cs3)c2)c1', 'pKi', '> 7.00'),
  ('Cc1cc(C(=O)N[C@@H](Cc2ccccc2)[C@H](O)CNCc2cncc(C(C)(F)F)c2)cc(C(=O)N2CCC[C@@H]2c2nc(C)cs2)c1', 'pKi', '> 7.00'),
  ('Cc1csc([C@H]2CCCN2C(=O)c2cccc(C(=O)N[C@@H](Cc3ccccc3)[C@H](O)CNCc3cc(C)on3)c2)n1', 'pKi', '> 7.00');
